tested on: biotinyl-Met-oxazolone; assay: self-aminoacylation, catalytic enhancement (BMO) (fold over background); higher = more active; k-Seq, kA / k0A0; sequences stand for … in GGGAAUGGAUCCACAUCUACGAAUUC…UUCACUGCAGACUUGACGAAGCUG
This sample holds only a part of the variants without activity.
The sequences listed here are annotated with their self-aminoacylation.

| biosequence | self-aminoacylation |
| --- | --- |
| ACACACUUCAGGCAAUCGGUC [Fam1B.1 aminoacylation ribozyme variant] | 1.38 |
| AUUGUCCUGGUCAUCGAGUGA [Fam2.1 aminoacylation ribozyme variant] | 9.63 |
| CCACCCUUCAAGCAAUCGGAC [Fam1B.1 aminoacylation ribozyme variant] | 0.991 |
| AUAACCCUGGUCAUCGAGUGU [Fam2.1 aminoacylation ribozyme variant] | 20 |
| AUUCACCUAGGUUAUCGGAUG [Fam2.2 aminoacylation ribozyme variant] | 0.712 |
| AUUACCAUGGUCAUAGAGUGA [Fam2.1 aminoacylation ribozyme variant] | 8.44 |
| AUUCACCUAUGUCAUGGGGUG [Fam2.2 aminoacylation ribozyme variant] | 2.89 |
| AUACACUUCAAGCAAUCGGUC [Fam1B.1 aminoacylation ribozyme variant] | 0.804 |
| AAUUUUGCUAAUACUCGCAAG [Fam3.1 aminoacylation ribozyme variant] | 1.01 |
| AUUACCCUGAUCAUCGAGUAA [Fam2.1 aminoacylation ribozyme variant] | 1.33 |
| AUGACCCUGGUCAUCGCGUGA [Fam2.1 aminoacylation ribozyme variant] | 16 |
| AAGUUUUCUAAUAGUCGGAAG [Fam3.1 aminoacylation ribozyme variant] | 1.25 |
| AAGUUUGCGAAUAGUUGCAAG [Fam3.1 aminoacylation ribozyme variant] | 1.2 |
| CCACACUUCGAGUAAUCGGUC [Fam1B.1 aminoacylation ribozyme variant] | 0.958 |
| AUUACUCUCGUCAUCGAGUGA [Fam2.1 aminoacylation ribozyme variant] | 2.92 |
| AGGUUUCCUAAUAGUCGCAAG [Fam3.1 aminoacylation ribozyme variant] | 1.6 |
| AUUACCCUGGUCAUCGGCUGA [Fam2.1 aminoacylation ribozyme variant] | 1.54 |
| AUUCACCUACGUCAUCGAGUG [Fam2.2 aminoacylation ribozyme variant] | 4.25 |
| UAGUUUUCUAAUAGUCGCAAG [Fam3.1 aminoacylation ribozyme variant] | 1.25 |
| AUUCACCUUGGUCAUCGGGUA [Fam2.2 aminoacylation ribozyme variant] | 3.09 |
| AUUACCCUGGUCUUCCAGUGA [Fam2.1 aminoacylation ribozyme variant] | 5.48 |
| AUUACCCUGGUCACCGAGUGC [Fam2.1 aminoacylation ribozyme variant] | 1.43 |
| AAGUUCGCUAACAGUCGCAAG [Fam3.1 aminoacylation ribozyme variant] | 1.36 |
| AUUCACCAAGGUCAUAGGGUG [Fam2.2 aminoacylation ribozyme variant] | 2.48 |
| CCUCAAUUCAAGCAAUCGGUC [Fam1B.1 aminoacylation ribozyme variant] | 0.916 |
| AUUACCCUGGUAAUGGAGUGA [Fam2.1 aminoacylation ribozyme variant] | 8.43 |
| AUUCACCUACGUCAACGGGUG [Fam2.2 aminoacylation ribozyme variant] | 2.35 |
| CUACUUCAAACAAAGGGUCUG [Fam1A.1 aminoacylation ribozyme variant] | 0.763 |
| AAGAUUGCUAAUAGUCGCUAG [Fam3.1 aminoacylation ribozyme variant] | 0.811 |
| AAGUUUGCUAGAAGUCGCAAG [Fam3.1 aminoacylation ribozyme variant] | 0.802 |
| AUUCAGCUUGGUCAUCGGGUG [Fam2.2 aminoacylation ribozyme variant] | 3.5 |
| AAGUUUGCUAAUAGUCGCUAG [Fam3.1 aminoacylation ribozyme variant] | 0.813 |
